Measured IC50 values are reported for all entries that follow.
molecular target: H10MbtA^opt (MbtAtb) (Mycobacterium tuberculosis (strain ATCC 25618 / H37Rv)); test: biochemical; conditions: IC50 (nM), H10MbtA^opt at 250 nM; two independent dose-response experiments
Sequence (P71716 whole entry, added parts left off): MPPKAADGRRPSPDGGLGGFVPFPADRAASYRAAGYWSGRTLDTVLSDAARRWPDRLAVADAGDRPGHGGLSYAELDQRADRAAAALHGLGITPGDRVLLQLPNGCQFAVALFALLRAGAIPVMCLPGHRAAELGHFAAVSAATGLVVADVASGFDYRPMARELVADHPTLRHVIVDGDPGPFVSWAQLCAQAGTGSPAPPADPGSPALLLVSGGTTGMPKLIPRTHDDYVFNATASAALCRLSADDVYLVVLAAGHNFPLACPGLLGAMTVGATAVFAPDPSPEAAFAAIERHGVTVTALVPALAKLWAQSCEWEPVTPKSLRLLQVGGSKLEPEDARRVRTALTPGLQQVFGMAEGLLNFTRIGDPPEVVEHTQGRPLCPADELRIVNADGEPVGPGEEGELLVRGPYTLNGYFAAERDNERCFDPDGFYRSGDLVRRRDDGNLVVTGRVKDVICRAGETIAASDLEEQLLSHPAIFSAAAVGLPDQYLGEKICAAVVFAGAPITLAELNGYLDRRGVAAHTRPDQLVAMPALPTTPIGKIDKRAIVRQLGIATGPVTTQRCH
The number alone won't do; follow it with the unit.

Measured IC50, CN(C[C@H]1O[C@@H](n2cnc3c(N)ncnc32)[C@H](O)[C@@H]1O)S(=O)(=O)NC(=O)c1ccccc1O : 175 nM

Measured IC50, COc1ncnc2c1ncn2[C@@H]1O[C@H](CNS(=O)(=O)NC(=O)c2ccccc2O)[C@@H](O)[C@H]1O : 289 nM
